measured target: His-GST-TVMV-hRIPK1(1-324) (Homo sapiens (Human), UniProt Q13546)
Sequence (Q13546 1-324): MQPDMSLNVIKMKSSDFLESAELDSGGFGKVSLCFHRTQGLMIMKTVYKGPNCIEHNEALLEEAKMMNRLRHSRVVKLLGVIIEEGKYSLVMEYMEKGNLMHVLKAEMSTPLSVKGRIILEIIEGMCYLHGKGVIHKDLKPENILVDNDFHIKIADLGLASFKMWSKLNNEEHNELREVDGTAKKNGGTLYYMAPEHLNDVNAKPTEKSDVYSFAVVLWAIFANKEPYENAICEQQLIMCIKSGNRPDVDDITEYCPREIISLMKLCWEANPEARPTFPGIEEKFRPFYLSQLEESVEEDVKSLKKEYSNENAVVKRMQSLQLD
experiment notes: RIPK1 HTRF Binding Assay
conditions used: HTRF binding, 1 h at rt; read-out: RIPK1 (IC50)
# strict inequality: IC50 < 30 nM yields y, everything else yields n

Observe how each entry below is paired with its result.
COc1ncc(-c2ccc3nc(NC(=O)C(C)(C)O)cn3n2)cc1C(=O)NCc1cc(OC(F)(F)F)ccc1F [Example 36] = n
COc1ncc(-c2ccc3nc(NC(C)=O)cn3n2)cc1C(=O)NCc1ccccc1OC1CCCC1 [Example 159] = y
Cc1ncc(-c2ccc3nc(NC(=O)CN4CC(F)(F)C4)cn3n2)cc1C(=O)NCC[C@@H](O)c1ccc(Cl)cc1 [Example 344] = n
Cc1ncc(-c2ccc3nc(NC(=O)CN4CC(F)(F)C4)cn3n2)cc1C(=O)N[C@H](C)c1cc(OC(F)(F)F)ccc1F [Example 335] = y
COc1ncc(-c2ccc3nc(NC(C)=O)cn3n2)cc1C(=O)NCc1cc(F)cc(F)c1OCC1CC1 [Example 121] = y
COc1ccc(-c2ccc3nc(NC(C)=O)cn3n2)c(F)c1C(=O)NCc1ccccc1OCC1CC1 [Example 377] = n

Okay, next one:
Record CC(=O)Nc1cn2nc(-c3cnc(C)c(C(=O)N[C@H](C)c4cc(OC(F)(F)F)ccc4F)c3)ccc2n1 (single isomer, unassigned) [Example 9-2] : is its IC50 strictly below 30 nM?
n

* * *

measured target: His-GST-TVMV-hRIPK1(1-324) (Homo sapiens (Human), UniProt Q13546)
experiment notes: RIPK1 HTRF Binding Assay
conditions used: HTRF binding, 1 h at rt; read-out: RIPK1 (IC50)
measurement kind: pIC50
Quick note: pIC50 means taking -log10 of the concentration in moles per liter.

Answered cases to consult:
CC(=O)Nc1cn2nc(-c3ccc(C)c(C(=O)NCC[C@H](O)c4ccc(Cl)cc4)c3)ccc2n1 = 8.30
COc1ncc(-c2ccc3nc(NC(C)=O)cn3n2)cc1C(=O)NCc1cccc(F)c1OC(C)C1CC1 (stereo not shown) [Example 135] = 8.52
COc1nc(C)c(-c2ccc3nc(NC(C)=O)cn3n2)cc1C(=O)NCc1cc(F)cc(OC(F)(F)F)c1 = 8.30

I am curious: what pIC50 value has been reported for `COc1ncc(-c2ccc3nc(NC(=O)C(C)C)cn3n2)cc1C(=O)NCc1cc(F)cc(F)c1OC1CCOCC1` ?
8.52

* * *

measured target: His-GST-TVMV-hRIPK1(1-324) (Homo sapiens (Human))
experiment notes: RIPK1 HTRF Binding Assay
conditions used: HTRF binding, 1 h at rt; read-out: RIPK1 (IC50)
Where a name gives a salt, the structure may show the parent alone.
measurement kind: pIC50
Scale: negative log10 of molar concentration, which is what pIC50 denotes.

// known answers, use as guide
COc1ccc(-c2ccc3nc(NC(C)=O)cn3n2)c(F)c1C(=O)NCc1cc(F)ccc1C(=O)N1CCC(F)(F)C1 = 8.05
CC(=O)Nc1cn2nc(-c3cnc(C)c(C(=O)NCC[C@H](O)c4ccc(Cl)cc4)c3)ccc2n1 = 7.18
COc1ncc(-c2ccc3nc(NC(C)=O)c(C)n3n2)cc1C(=O)NCc1ccccc1OC(F)(F)F [Example 258, TFA] = 7.14
CCC(=O)Nc1cn2nc(-c3cnc(OC)c(C(=O)NCc4ccccc4OC(F)(F)F)c3)ccc2n1 [Example 248, TFA] = 7.89
COc1nc(C)c(-c2ccc3nc(NC(C)=O)cn3n2)cc1C(=O)NCc1ccccc1OCC1CCC(F)(F)CC1 = 7.68

Report pIC50 for `Cc1ncc(-c2ccc3nc(NC(=O)CO)cn3n2)cc1C(=O)N[C@H](C)c1cc(OC(F)(F)F)ccc1F` please.
7.52
